- procedure.summary: inhibitors of Chlamydomonas gravitaxis, primary screen, whole organism, Chlamydomonas reinhardtii, WT vs cilia-less mutant, absorbance, 96-well (AID 463189);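 further: 0% = wild type cc124 cells in DMSO and 100% = ciliumless bld1 mutant cells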
- condition.label: OD600 absorbance, 2 days, at 10 µM, stronger effect = higher value
# inhibition per entry
measured.attribute: inhibition (%)

{"columns": ["compound", "experimental.result"],
 "data": [
  ["CC(C)OC(=O)C(C#N)c1nc2ccccc2nc1N1CCN(Cc2ccc3c(c2)OCO3)CC1 (stereo unspecified)", 17],
  ["CN1C(=O)CC(N2CCN(c3ccc(Cl)c(Cl)c3)CC2)C1=O (stereo unspecified)", 0.241],
  ["CCOC(=O)CNS(=O)(=O)c1cc(-c2nn(C)c(=O)c3ccccc23)ccc1C", -1.44],
  ["COc1ccc(C2(CN(C(C)=O)C(C)=O)CCCC2)cc1OC", -15.3],
  ["COC(=O)c1cc(OC)c(OC)cc1N", -2.54],
  ["Cc1cc(C)nc(NC2=NCC(=O)N2c2cccc(Cl)c2)n1", -3.6],
  ["COc1cccc(/C(O)=C2/C(=O)C(=O)N(CCN(C)C)C2c2ccc(Br)cc2)c1 (stereo unspecified)", 28.7],
  ["CC1CCc2cc(F)cc3c(O)c(C(=O)NCC4CCCO4)c(=O)n1c23 (stereo unspecified)", 11.8],
  ["O=C(O)CCc1cc(I)c(Oc2ccc(O)c(I)c2)c(I)c1", 3.29],
  ["CCCC1Cc2c(sc3ncnc(N)c23)CO1 (stereo unspecified)", 1.24],
  ["N#Cc1ccc(-c2cccnc2)nc1SCC(=O)Nc1sc2c(c1C#N)CCC2", -0.076]
]}

Origin of values: PubChem BioAssay
